molecular target: C-C chemokine receptor type 6 (Homo sapiens) (UniProt P51684); assay: blockers of CCL20-driven beta-arrestin recruitment to CCR6 – cell-based, CHO-K1, luminescence, uHTS, primary screen (AID 493098); details: CHO-K1 CCR6 PathHunter beta-arrestin, CCL20-stimulated, at 20 µM;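 also: cells stimulated with CCL20 at 14 nM final; plate controls were DMSO with CCL20 for no effect and DMSO without agonist for full effect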
Sequence (P51684 whole entry, looked up): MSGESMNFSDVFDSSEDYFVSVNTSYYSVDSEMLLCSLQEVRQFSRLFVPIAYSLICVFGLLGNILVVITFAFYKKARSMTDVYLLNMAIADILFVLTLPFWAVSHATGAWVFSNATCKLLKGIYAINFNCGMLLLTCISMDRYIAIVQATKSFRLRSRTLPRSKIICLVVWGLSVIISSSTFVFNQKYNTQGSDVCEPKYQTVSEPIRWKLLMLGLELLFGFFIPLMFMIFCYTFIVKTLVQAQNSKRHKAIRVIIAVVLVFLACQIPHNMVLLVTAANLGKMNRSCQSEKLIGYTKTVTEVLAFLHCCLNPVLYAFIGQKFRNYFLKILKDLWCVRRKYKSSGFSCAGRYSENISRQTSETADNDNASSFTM
The campaign covered roughly 340,000 compounds. About 1,700 (0.5%) were called active.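 The calls were made as follows: active = compounds whose inhibition of the agonist-driven luminescence signal at 20 µM reaches about 50% (limit read from the data); inactive = the rest.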 Many of the other results were omitted from the sample, so actives are more common in it than they were.
Hi! Could you answer with just one of these? 1 for active, -1 for inactive

input: Just curious, what result did O=C(CO/N=C/c1ccc(OC(F)F)cc1)NCc1ccc(F)cc1 get here?
output: -1

input: Called result for CC(=O)c1ccc(N=C2SCCCN2C(=O)C2CCCCC2)cc1
output: -1

input: // return assay outcome for O=[N+]([O-])c1cc(Cl)cc(/C=N/NC(=S)Nc2cc(S(=O)(=O)N3CCOCC3)ccc2Cl)c1O
output: 1

input: Which outcome did this test record for the molecule COc1ccc(C(=O)NC2CC2)cc1OC1CCN(C/C=C/c2ccccc2)CC1 ?
output: -1

input: For this molecule, state the assay outcome: CCc1ccc(CNC(=O)C2CCCN(c3nc4ccccc4o3)C2)cc1 (stereo unspecified)
output: -1

input: Record request — test call for COc1ccc(N2CCN(CCNC(=O)c3nnc(Cc4c(F)cccc4Cl)o3)CC2)cc1
output: -1

input: How was Cc1ccc(/C([O-])=C(/C(=S)NCc2ccco2)[n+]2ccccc2)cc1[N+](=O)[O-] classified in this test?
output: -1

input: What did the test return for O=C1Nc2ccc([N+](=O)[O-])cc2C1=Nc1cccc(CO)c1 ?
output: 1

input: In this assay, the call recorded for CC1=C/C(=N\OS(=O)(=O)c2ccccc2)C=CC1=O was what?
output: 1

input: Just curious, what result did O=S(=O)(c1ccc(NC(=S)NN=C(C2CC2)C2CC2)cc1)N1CCOCC1 get here?
output: -1

input: What outcome does the record of this test show for COc1cc2c(-c3ccc4c(c3)OCO4)c(-c3ccsc3)oc(=O)c2cc1OC ?
output: -1

input: Just curious, what result did CCOC(=O)CCNC(=O)N1CCCC(C(=O)c2ccccc2SC)C1 (stereo unspecified) get here?
output: -1

input: Short answer needed: outcome of this test for COc1cc(CNc2ncn[nH]2)ccc1OCc1ccccc1C ?
output: -1

input: Look up the recorded call for Oc1ccc(N=Nc2nccs2)c(O)c1 in this test.
output: 1

input: Dear colleague, could you share the recorded outcome for COC(=O)/C=C\C(=O)Nc1cccc([N+](=O)[O-])c1 when you have a moment?
output: 1

input: Would you mind telling me which call this test gave CCOC(=O)c1cnc(Nc2nc3ccccc3o2)nc1CSC(=S)N1CCCCC1 ?
output: 1

input: Lab log entry: O=C(CN(Cc1ccc(Br)cc1)S(=O)(=O)c1ccccc1)NCc1ccncc1 — outcome as called in the assay?
output: -1

input: Tell me the recorded outcome of this test for O=C(NN=Cc1ccc([N+](=O)[O-])cc1)C1CC1 .
output: -1

input: I'd appreciate the recorded outcome for Cc1cc(NC(=O)CCC(=O)N(Cc2ccccc2)C(C(=O)NC2CCCC2)c2ccc(C)o2)no1 (stereo unspecified) from this test.
output: -1

input: What outcome does the record of this test show for Cc1ccc(S(=O)(=O)N2CCN(CC(=O)N/N=C/c3cc([N+](=O)[O-])ccc3Cl)CC2)cc1 ?
output: -1

input: Fill in: this test's call for O=c1[nH]c(CN2CCN(S(=O)(=O)c3ccc4c(c3)OCCO4)CC2)nc2sc3c(c12)CCCC3 is ___
output: -1
